Data credit: PubChem BioAssay (NCATS)

Target: Ubiquitin carboxyl-terminal hydrolase 1 (Homo sapiens) (UniProt O94782)
Sequence (O94782 whole entry, looked up): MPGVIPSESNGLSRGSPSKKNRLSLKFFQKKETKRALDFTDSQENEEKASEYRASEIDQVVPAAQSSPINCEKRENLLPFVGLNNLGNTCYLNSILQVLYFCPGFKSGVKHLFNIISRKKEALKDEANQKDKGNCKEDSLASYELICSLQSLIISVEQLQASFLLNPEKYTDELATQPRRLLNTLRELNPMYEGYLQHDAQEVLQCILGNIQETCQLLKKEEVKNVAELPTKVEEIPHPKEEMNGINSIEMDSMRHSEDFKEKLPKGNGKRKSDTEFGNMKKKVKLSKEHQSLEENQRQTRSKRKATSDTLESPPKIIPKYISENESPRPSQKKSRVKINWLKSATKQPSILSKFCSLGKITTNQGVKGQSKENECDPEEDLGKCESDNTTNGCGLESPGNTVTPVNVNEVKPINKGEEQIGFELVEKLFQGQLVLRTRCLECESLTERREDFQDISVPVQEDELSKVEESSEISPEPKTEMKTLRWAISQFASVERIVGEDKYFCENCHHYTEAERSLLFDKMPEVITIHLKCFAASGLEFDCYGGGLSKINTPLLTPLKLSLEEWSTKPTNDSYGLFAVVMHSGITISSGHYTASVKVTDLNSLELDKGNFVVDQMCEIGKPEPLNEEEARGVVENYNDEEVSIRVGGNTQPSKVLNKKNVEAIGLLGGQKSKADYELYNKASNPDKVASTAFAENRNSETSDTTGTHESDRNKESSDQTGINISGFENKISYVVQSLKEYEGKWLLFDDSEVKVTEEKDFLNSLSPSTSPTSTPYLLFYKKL
Assay: Inhibitors of USP1/UAF1: Pilot qHTS (AID 504865);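 also: rhodamine fluorescence freed from ubiquitin-rhodamine substrate followed over time; top concentration of the series differs between compounds; nearly all actives have a fitted effect of over 35% in size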
Settings: purified USP1/UAF1, Ub-rhodamine cleavage fluorescence; series mostly up to 114 µM
Records with an inconclusive call do not appear. Calls of active or inactive are those of the source. Calls follow the shape of the dose curve; as a rule, active = well fitted inhibition curve with a large enough effect; inconclusive = small, poorly fitted or top-dose-only effect; inactive = flat fitted curve, though single readings scatter.
Allowed answers: Yes (active), No (inactive)

Please review the entries below; each comes with its answer.
- compound: "O=C(O)CC1CC(c2ccccc2)=NO1 (stereo not drawn)"
  answer_label: "No"
- compound: "COc1cc2c3cc1Oc1cc(ccc1O)C[C@@H]1c4c(cc(OC)c(O)c4Oc4ccc(cc4)C[C@@H]3N(C)CC2)CC[N+]1(C)C"
  answer_label: "No"
- compound: "CCCCC[C@H](O)/C=C/[C@@H]1[C@@H](C/C=C\\CCCC(=O)O)[C@@H](O)C[C@H]1O"
  answer_label: "No"

Lookup: What call does the record list for NC(N)=NC(=O)c1nc(Cl)c(N2CCCCCC2)nc1N ?
Found: No

Lookup: // param item: O=C(OCc1ccccc1)c1ccccc1 ; yields the recorded call
Found: No
